Origin of measurements: patent USRE32519E

procedure_summary: acute toxicity (LD50) on mice
conditions: mouse, in vivo, po; per os on mice; read-out: DL
value_kind: LD50

Name the reported LD50 value associated with the molecule COc1cc2c(cc1OC)C(C(C#N)SCCO)=NCC2 (stereo not shown) [Example 3]
> 500 mg/kg

----------
tgt: cyclic oxygenase (Ovis aries, UniProt P05979)
Construct: As an enzyme source a homogenizate of sheep spermatocele; from tissue; host or cells: homogenate of sheep 'spermatocele' (read as seminal vesicle)
Sequence (P05979 25-600): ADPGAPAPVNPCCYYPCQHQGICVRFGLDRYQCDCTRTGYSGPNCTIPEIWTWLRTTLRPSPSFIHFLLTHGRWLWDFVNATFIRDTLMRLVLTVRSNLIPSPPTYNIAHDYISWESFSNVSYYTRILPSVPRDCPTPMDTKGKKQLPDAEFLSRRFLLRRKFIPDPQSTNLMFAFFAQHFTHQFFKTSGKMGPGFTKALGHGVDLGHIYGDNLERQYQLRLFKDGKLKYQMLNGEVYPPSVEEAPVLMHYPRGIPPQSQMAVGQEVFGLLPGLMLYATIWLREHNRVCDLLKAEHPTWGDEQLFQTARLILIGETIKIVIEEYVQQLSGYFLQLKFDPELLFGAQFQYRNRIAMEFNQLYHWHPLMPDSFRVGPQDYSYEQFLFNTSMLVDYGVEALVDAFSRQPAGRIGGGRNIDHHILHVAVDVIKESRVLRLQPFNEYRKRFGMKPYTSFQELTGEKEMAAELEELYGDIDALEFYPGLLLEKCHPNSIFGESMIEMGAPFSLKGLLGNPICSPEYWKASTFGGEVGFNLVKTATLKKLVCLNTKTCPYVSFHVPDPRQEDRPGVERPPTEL
procedure_summary: effect on biosynthesis of prostaglandins: activity of cyclic oxygenase, oxygen consumption with arachidonic acid substrate (Clark electrode)
Type: biochemical, sheep
conditions: concentration for 50% increase in oxygen consumption
Where a name gives a salt, the structure may show the parent alone.
API: label(entry) gives class 1 if the entry's AC50 is strictly smaller than 100 µM; on equality or larger values it gives class 0.

Please determine if COc1cc2c(cc1OC)C(C(C#N)SCC(=O)O)=NCC2 (stereo not drawn) [Example 6] is below 100 µM in terms of AC50.
class 1

Next entry: COc1cc2c(cc1OC)C(C(C#N)SCCN(C)C)=NCC2 (stereo not drawn) [Example 15, hydrochloride]
class 1

Others:
Strictly below 100 µM in AC50? CCOC(=O)CSC(C#N)C1=NCCc2cc(OC)c(OC)cc21 (stereo not drawn) [Example 18]
class 1

Repeat for the following molecule: COc1cc2c(cc1OC)C(C(C#N)SCCC(=O)O)=NCC2 (stereo not drawn) [Example 9]
class 1

Same question, COc1cc2c(cc1OC)C(C(C#N)SC(C)C(=O)O)=NCC2 (stereo not drawn) [Example 12] this time
class 0
